# key: entry, value: growth
# System: MDA-MB-231 breast
# ASSAY_TEXT: NCI-60 one-dose screen, 48 h (100 = growth as untreated, 0 = no growth, -100 = all killed)
# TEST_CONTEXT: 10 µM unless noted
About 83,000 compounds went through this panel and 20% of them were active in at least one assay; those are over-represented in the sample as a whole.
MEASUREMENT_KIND: growth (%)

| MOLECULE | MEASUREMENT_KIND | MEASURED_RESULT |
| --- | --- | --- |
| COc1ccc(/C=N/NC(=O)c2c(N)nn(C)c2Nc2ccccc2)cc1Oc1ccccc1 | growth | 94.9 |
| Cn1cc(-c2cc3ncnc(Nc4ccc(NC(=O)Nc5cc(C(C)(C)C)on5)cc4)c3s2)cn1 | growth | 28 |
| CC(=O)c1c([Si](C)(C)C)c2cc(C#N)ccn2c1C(=O)c1ccc(Br)cc1 | growth | 85.4 |
| CCN(CC)c1ccc(/C=N/NC(=O)c2ccc(S(N)(=O)=O)cc2)cc1 | growth | 38.3 |
| C[C@@H]1OCC2(CCN(c3cnc(C(=O)Nc4cc(F)cc5cccnc45)cn3)CC2)[C@@H]1N | growth | 38.9 |
| Cc1ccc(/C=N/Nc2nc(Nc3ccccc3)nc(Nc3ccc(S(N)(=O)=O)cc3)n2)cc1 | growth | 73.4 |
| Brc1ccc(-c2cc(-c3ccc4c(c3)OC=CO4)n[nH]2)s1 | growth | 90.8 |
| CCNC(=O)Oc1ccc(/C(=C(/C)c2ccc(Cl)cc2)c2ccc(OCCN3CCCCCC3)cc2)cc1 | growth | 21.3 |
| CCOC(=O)c1cnc2c(-c3ccc(Cl)c(Cl)c3)cnn2c1 | growth | 81.5 |
| Cc1cc(C)cc(NC2=C(Cl)C(=O)c3nc(C)ccc3C2=O)c1 | growth | 53.8 |
| Cc1ccc2c(n1)C(=O)C(Cl)=C(Nc1cccc(C(=O)OC(C)(C)C)c1)C2=O | growth | 74.4 |
| CCCC/C(=C\c1ccc(O)c(O)c1)C(=O)NC(Cc1ccccc1)C(=O)C(=O)NCCc1ccc(OC)cc1 (configuration not stated) | growth | 92.1 |
| Oc1ccc(-c2nc3ccc(/C(=N\N=C\c4ccc(Cl)cc4)c4ccccc4)cc3[nH]2)cc1 | growth | 91.1 |
| Cc1ccc(-c2nc(SCC(=O)c3ccccc3)nc(Nc3ccc(S(N)(=O)=O)cc3)c2C#N)cc1 | growth | 33 |
| Cc1ccc2c(n1)C(=O)C(Cl)=C(Nc1cc(C(F)(F)F)cc(C(F)(F)F)c1)C2=O | growth | 87.1 |
| Cn1c(SCC(=O)c2ccc(Br)cc2)nc2ccccc2c1=O | growth | 94.9 |
| O=C(/C=C/c1cccc(F)c1)c1cccc(OCCCOc2cccc(C(=O)/C=C/c3cccc(F)c3)c2)c1 | growth | 81 |
| O=C(CSc1nnc(-c2ccc(Cl)cc2)n1-c1ccccc1)Nc1ccccc1Cl | growth | 44.8 |
| CC1=C(C)C(=O)C(Nc2ccc3c(c2)OCCO3)=C(Br)C1=O | growth | 88.3 |
| N#Cc1nc(-c2ccccc2)oc1N1CCC(C2(C(F)(F)F)N=N2)CC1 | growth | 93.8 |
| CC1=C(C)C(=O)C(Nc2cccc(C(=O)OC(C)(C)C)c2)=C(Cl)C1=O | growth | 48.9 |
| CC1(C)CC[C@]23CC[C@]4(C)[C@H](CC[C@@H]5[C@@]6(C)CC[C@H](NCO)C(C)(C)[C@@H]6CC[C@]54C)[C@H]2[C@H]1OC3 | growth | 19.7 |
| CC/C(=C(/c1ccc(Cl)cc1)c1ccc(OCCN)cc1)c1ccccc1 | growth | 86.6 |
| COc1ccc2[nH]cc(/C=N/Nc3ccnc4cc(Cl)ccc34)c2c1 | growth | -93.9 |
| Fc1cccc(Cl)c1/C=N/Nc1nc(N/N=C/c2c(F)cccc2Cl)nc(N2CCCCC2)n1 | growth | 42.1 |
| O=C(CCCCCCN1CC(=O)N2[C@@H](c3ccccc3Br)c3[nH]c4ccccc4c3C[C@H]2C1=O)NO | growth | 50 |
| CN1CCN(c2ccc(Nc3nc(NCCCNS(=O)(=O)c4cccc5ccccc45)c4sccc4n3)cc2)CC1 | growth | -29 |
| COc1ccc(/C=N/NC(=O)CSc2nc(-c3cnccn3)cc(-c3cccs3)c2C#N)cc1 | growth | 70.5 |
| COc1cc(-c2nc(-c3ccccc3)[nH]c2-c2ccnc(NCCCNS(=O)(=O)c3ccc(C)cc3)n2)ccc1F | growth | 91.7 |
| COc1ccc(OC)c(CCn2cncc2-c2c[nH]c3ccc(Cl)cc23)c1 | growth | 62.6 |
| C=C(C)[C@@H]1CC[C@]2(COCCCNCCCN)CC[C@]3(C)[C@H](CC[C@@H]4[C@@]5(C)CC[C@H](O)C(C)(C)[C@@H]5CC[C@]43C)[C@@H]12 | growth | -86.3 |
| CCCCOc1ccc(S(=O)(=O)N2CCN(c3nc(C)cc(N4CCOCC4)n3)CC2)cc1 | growth | 3.79 |
| CC(Nc1c(C#N)cnc2ccc(-c3cncc(O)c3)cc12)c1ccccc1 (configuration not stated) | growth | 14.4 |
| C1=CC(c2nn3c(-c4ccccc4)nnc3s2)=Cc2ccccc2O1 | growth | 78.3 |
| O=C(COc1ccc(/C=C2\C(=O)Nc3cc(Cl)ccc32)cc1)Nc1ccc(Cl)cc1 | growth | 82.8 |
| CCOC(=O)c1c(NC(=O)c2cccc(C(F)(F)F)c2)sc2c3c(ccc12)OCN(C)C3 | growth | -95.9 |
| COc1ccc([C@H]2C(=O)N(c3cc(OC)c(OC)c(OC)c3)[C@@H]2c2ccc(OC)c(O)c2)cc1 | growth | 17.5 |
